From: PubChem BioAssay AID1845208

system: NCI-H196 SCLC complex tumor spheroid viability; test: Anticancer human tumor NCI-H196 cell line growth inhibition; conditions: second compound 1 µM; first compound 0.949 µM; active compounds read low;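 further: spheroids exposed to compounds for 7 days before readout; 100% = DMSO vehicle control wells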
Readout Kind: viability, T/C (%)
Record the value in %, omitting the unit from your answer.

compound="Cn1ncnc1[C@H]1c2n[nH]c(=O)c3cc(F)cc(c23)N[C@@H]1c1ccc(F)cc1 + Cn1nnc2c(C(N)=O)ncn2c1=O" unit_tag=% assay_result=86.6
compound="Cc1sc2c(c1C)C(c1ccc(Cl)cc1)=NC(CC(=O)Nc1ccc(O)cc1)c1nnc(C)n1-2 (centres undefined) + Cn1nnc2c(C(N)=O)ncn2c1=O" unit_tag=% assay_result=37.3
compound="CNCc1ccc(-c2cc(-c3nc(-c4ccc(S(=O)(=O)C(C)C)cc4)cnc3N)on2)cc1 + Cn1nnc2c(C(N)=O)ncn2c1=O" unit_tag=% assay_result=84.1

The record that follows has no viability, T/C shown yet.
[Q] Sample O=C(c1cc(Cc2n[nH]c(=O)c3ccccc23)ccc1F)N1CCN(C(=O)C2CC2)CC1 + Cn1nnc2c(C(N)=O)ncn2c1=O — what was its viability, T/C?
[A] 93.3

###

Catalogue of viability, T/C readings, one per entry.
Tested on: NCI-H196 SCLC complex tumor spheroid viability
Experiment: Anticancer human tumor NCI-H196 cell line growth inhibition;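 further: spheroids exposed to compounds for 7 days before readout; 100% = DMSO vehicle control wells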
Details: second compound 0.0003 µM; first compound 0.316 µM; active compounds read low
Protocol: Multicellular complex tumor spheroid response to DNA repair inhibitors in combination with DNA-damaging drugs This study explores the anticancer activities of DNA-damaging drugs and inhibitors of DNA damage repair, both as single agents and in combinations. […] Twenty-six patient-derived or established malignant cell lines were evaluated representing sarcoma, melanoma, small cell lung cancer (SCLC), non-small cell lung cancer (NSCLC), as well as bladder, ovarian and pancreatic cancers. […]
Lab book: enter the figure in %, no units written.

molecule="COc1ccc([C@@H](O)c2cc(-c3ncnc4cc(N5CCOCC5)ccc34)c(F)cc2Cl)nn1 + COc1cc2c(cc1O)CCNC21CSC2c3c(OC(C)=O)c(C)c4c(c3C(COC1=O)N1C(O)C3Cc5cc(C)c(OC)c(O)c5C(C21)N3C)OCO4" unit_tag=% assay_result=91.1
molecule="CC1COCCN1c1cc(-c2ccnn2C)c2ccnc(-c3ccn[nH]3)c2n1 (stereo unspecified) + COc1cc2c(cc1O)CCNC21CSC2c3c(OC(C)=O)c(C)c4c(c3C(COC1=O)N1C(O)C3Cc5cc(C)c(OC)c(O)c5C(C21)N3C)OCO4" unit_tag=% assay_result=64
molecule="Cc1cc(C)c(CNC(=O)c2cc(-c3ccc(CN4CCOCC4)cc3)cc3c2cnn3C2CCCC2)c(=O)[nH]1 + COc1cc2c(cc1O)CCNC21CSC2c3c(OC(C)=O)c(C)c4c(c3C(COC1=O)N1C(O)C3Cc5cc(C)c(OC)c(O)c5C(C21)N3C)OCO4" unit_tag=% assay_result=105

[Q] Consider the molecule [2H]c1nc(C)nc([2H])c1-c1cc(NC[C@@H](C)c2cccc3c(C(=O)NC)ccnc23)ncn1 + COc1cc2c(cc1O)CCNC21CSC2c3c(OC(C)=O)c(C)c4c(c3C(COC1=O)N1C(O)C3Cc5cc(C)c(OC)c(O)c5C(C21)N3C)OCO4 and give its measured viability, T/C.
[A] 106

[Q] What value of viability, T/C has been reported for the following molecule? CC(C)n1c(=O)n(C)c2cnc3cc(F)c(-c4ccc(OCCCN5CCCCC5)nc4)cc3c21 + COc1cc2c(cc1O)CCNC21CSC2c3c(OC(C)=O)c(C)c4c(c3C(COC1=O)N1C(O)C3Cc5cc(C)c(OC)c(O)c5C(C21)N3C)OCO4
[A] 111

[Q] Requested field: viability, T/C. Item: COc1cc(C)[nH]c(=O)c1CN1CCc2c(Cl)cc(C(OC)C3COC3)c(Cl)c2C1=O (stereo unspecified) + COc1cc2c(cc1O)CCNC21CSC2c3c(OC(C)=O)c(C)c4c(c3C(COC1=O)N1C(O)C3Cc5cc(C)c(OC)c(O)c5C(C21)N3C)OCO4
[A] 98.8
